- System: Savinase Ultra 16.0L (Lederbergia lenta, UniProt P29600)
- Construct: purchased Sigma-Aldrich
- Sequence (P29600 whole entry): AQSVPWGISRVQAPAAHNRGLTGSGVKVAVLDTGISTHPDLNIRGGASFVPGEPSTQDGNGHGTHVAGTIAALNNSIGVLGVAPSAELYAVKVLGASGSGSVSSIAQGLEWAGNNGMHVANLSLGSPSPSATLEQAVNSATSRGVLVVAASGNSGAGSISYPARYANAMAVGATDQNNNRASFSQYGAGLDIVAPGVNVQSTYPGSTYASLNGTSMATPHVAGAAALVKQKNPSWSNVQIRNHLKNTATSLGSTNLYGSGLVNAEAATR
- Protocol notes: protease storage stability in liquid formulation (Suc-AAPF-pNA substrate)
- Type: biochemical
- Conditions used: base formulation I., 1.5 wt % component (a), storage at 37° C., 21 d
Parameter measured: protease activity, referring to reference formulation at time 0

{"columns": ["Compound", "System", "Result"],
 "data": [
  ["CCOC(=O)CC(O)(CC(=O)OCC)C(=O)OCC [A.1, Triethylcitrate]", "Savinase Ultra 16.0L (Lederbergia lenta, UniProt P29600)", 83],
  ["CCCCOC(=O)CC(CC(=O)OCCCC)(OC(C)=O)C(=O)OCCCC [A.4, Acetyltributylcitrate]", "Savinase Ultra 16.0L (Lederbergia lenta, UniProt P29600)", 84],
  ["CCCOC(=O)CC(O)(CC(=O)OCCC)C(=O)OCCC [A.2, Tripropylcitrate]", "Savinase Ultra 16.0L (Lederbergia lenta, UniProt P29600)", 85]
]}

Next compound, protease activity, referring to reference formulation at time 0 to be filled in.
query: Please report the recorded protease activity, referring to reference formulation at time 0 for CCOC(=O)CC(CC(=O)OCC)(OC(C)=O)C(=O)OCC [A.5, Acetyltriethylcitrate] .
result: 80

Each recorded value in this set is attributed to patent US20220112479A1.
